Recorded values, source patent US20150165065A1.

# test-system: T1, integrin αVβ5 (UniProt P06756 31-992; P18084 24-719)
# T1 construct: Coated on the ELISA plate
# T1 sequence (P06756 31-992, chain 1 of 2): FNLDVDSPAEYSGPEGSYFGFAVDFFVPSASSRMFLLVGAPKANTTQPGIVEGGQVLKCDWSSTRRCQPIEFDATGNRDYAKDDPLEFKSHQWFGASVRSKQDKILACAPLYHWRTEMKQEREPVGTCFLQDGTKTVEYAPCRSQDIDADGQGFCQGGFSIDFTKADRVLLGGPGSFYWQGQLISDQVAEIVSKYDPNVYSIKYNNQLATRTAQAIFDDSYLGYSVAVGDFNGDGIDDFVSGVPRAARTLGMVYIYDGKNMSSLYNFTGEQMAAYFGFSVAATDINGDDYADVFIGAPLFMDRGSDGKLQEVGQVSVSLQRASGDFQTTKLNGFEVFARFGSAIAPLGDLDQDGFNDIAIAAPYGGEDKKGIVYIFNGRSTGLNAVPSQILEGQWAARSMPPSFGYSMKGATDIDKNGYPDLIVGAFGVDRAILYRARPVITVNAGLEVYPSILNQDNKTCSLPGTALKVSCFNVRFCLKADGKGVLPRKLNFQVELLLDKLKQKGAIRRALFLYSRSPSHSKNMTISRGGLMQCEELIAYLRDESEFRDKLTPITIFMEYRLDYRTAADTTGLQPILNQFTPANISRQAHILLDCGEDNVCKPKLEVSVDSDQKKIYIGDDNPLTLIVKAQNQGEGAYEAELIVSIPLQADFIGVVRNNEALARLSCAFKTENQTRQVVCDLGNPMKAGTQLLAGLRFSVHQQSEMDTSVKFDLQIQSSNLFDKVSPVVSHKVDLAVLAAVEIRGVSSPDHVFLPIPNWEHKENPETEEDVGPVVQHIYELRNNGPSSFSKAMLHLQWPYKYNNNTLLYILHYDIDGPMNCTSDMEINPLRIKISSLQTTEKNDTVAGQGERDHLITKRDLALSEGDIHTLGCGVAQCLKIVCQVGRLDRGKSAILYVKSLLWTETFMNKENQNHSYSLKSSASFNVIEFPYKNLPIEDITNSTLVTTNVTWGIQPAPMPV
# T1 sequence (P18084 24-719, chain 2 of 2): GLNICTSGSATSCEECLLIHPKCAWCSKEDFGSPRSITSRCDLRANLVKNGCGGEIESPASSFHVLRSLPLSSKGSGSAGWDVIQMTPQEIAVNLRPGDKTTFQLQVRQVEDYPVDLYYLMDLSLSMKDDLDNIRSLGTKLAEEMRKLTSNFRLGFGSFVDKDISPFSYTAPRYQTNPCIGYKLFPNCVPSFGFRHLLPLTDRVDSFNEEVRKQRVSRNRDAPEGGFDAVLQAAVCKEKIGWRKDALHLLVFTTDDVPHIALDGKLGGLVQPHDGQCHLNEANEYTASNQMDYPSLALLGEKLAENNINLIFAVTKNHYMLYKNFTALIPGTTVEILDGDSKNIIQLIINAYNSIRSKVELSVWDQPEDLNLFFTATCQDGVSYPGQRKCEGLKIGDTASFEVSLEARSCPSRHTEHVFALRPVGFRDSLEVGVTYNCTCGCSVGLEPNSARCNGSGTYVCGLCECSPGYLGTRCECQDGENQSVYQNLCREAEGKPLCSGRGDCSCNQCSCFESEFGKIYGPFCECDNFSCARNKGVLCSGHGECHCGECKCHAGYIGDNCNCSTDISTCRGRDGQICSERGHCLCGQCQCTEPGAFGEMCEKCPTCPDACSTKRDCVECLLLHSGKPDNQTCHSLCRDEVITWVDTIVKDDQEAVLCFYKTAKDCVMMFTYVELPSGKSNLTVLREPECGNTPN
# test-details: phage ELISA, coated integrin, anti-M13-HRP
value-type: αvβ5 signal (OD)
# unit: OD | format: bare number

M13 phage pKK93 displaying MICA α3 domain with loop 1 insert 3.2 (designed binder, also called 1-3.2; not shown: C-terminal portion of M13 gene III protein, fused at codon position 198) TVPPMVNVTRTSRGDHPRTQVTCRASGFYPWNITLSWRQDGVSLSHDTQQWGDVLPDGNGTYQTWVATRICQGEEQRFTCYMEHSGNHSTHPVPSGK | 0.291

Next binder, αvβ5 signal to be filled in.
Reported αvβ5 signal, binder M13 phage pKK103 displaying MICA α3 domain with loop 1 insert 5.3sp (designed binder, also called 1-5.3sp; not shown: C-terminal portion of M13 gene III protein, fused at codon position 198) TVPPMVNVTSGGSGGGSHLARGDDLTYSGGSGGGVTCRASGFYPWNITLSWRQDGVSLSHDTQQWGDVLPDGNGTYQTWVATRICQGEEQRFTCYMEHSGNHSTHPVPSGK : ____
0.491
